Measured IC50 by item
target_or_system: BCL-2 (Homo sapiens)
Construct: purchased Cisbio 63ADK000CB01PEG
Sequence (P10415 whole entry): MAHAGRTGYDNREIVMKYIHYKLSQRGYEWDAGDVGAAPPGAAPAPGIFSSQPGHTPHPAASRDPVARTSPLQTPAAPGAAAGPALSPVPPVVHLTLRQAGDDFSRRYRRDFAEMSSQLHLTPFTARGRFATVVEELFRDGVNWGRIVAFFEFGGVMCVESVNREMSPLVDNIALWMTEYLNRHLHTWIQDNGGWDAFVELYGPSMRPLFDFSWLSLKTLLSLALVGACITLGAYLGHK
test_protocol: HTRF BCL-2/BAK assay (Cisbio)
Type: binding
particulars: recombinant human Tag1-BCL-2 2 nM, Tag2-BAK 10 nM

The following molecules have reported results that may help.
// IC50 lookup, molecule = O=C(NS(=O)(=O)c1ccc(NCC2CCOCC2)c([N+](=O)[O-])c1)c1ccc(N2CCN(C3CCCCc4c(-c5ccn[nH]5)cccc43)CC2)cc1Oc1cnc2[nH]ccc2c1 (stereo not drawn) , result: < 20 nM

// IC50 lookup, molecule = `O=C(NS(=O)(=O)c1ccc(NCC2CCC3(CC2)COC3)c([N+](=O)[O-])c1)c1ccc(N2CCN([C@@H]3CCCCc4c(Br)cccc43)CC2)cc1Oc1cnc2[nH]ccc2c1` , result: < 20 nM

// IC50 lookup, molecule = O=C(NS(=O)(=O)c1ccc(NCC2CCOCC2)c([N+](=O)[O-])c1)c1ccc(N2CCN(C3CCCCc4ccc(-c5ccccc5)cc43)CC2)cc1Oc1cnc2[nH]ccc2c1 (stereo not drawn) , result: 20 to 200 nM

Others:
// IC50 lookup, molecule = O=C(NS(=O)(=O)c1ccc(NCC2CCOCC2)c([N+](=O)[O-])c1)c1ccc(N2CCC3(CC2)CN(C2CCCc4ccccc42)C3)cc1Oc1cnc2[nH]ccc2c1 (stereo not drawn) , result: < 20 nM

// IC50 lookup, molecule = `O=C(NS(=O)(=O)c1ccc(NCC2(O)CCN(C3COC3)CC2)c([N+](=O)[O-])c1)c1ccc(N2CCN([C@@H]3CCCCc4c(Cl)cc(F)cc43)CC2)cc1Oc1cnc2[nH]ccc2c1` , result: < 20 nM

// IC50 lookup, molecule = `O=C(O)CN1CCC2(CC1)CC(CNc1ccc(S(=O)(=O)NC(=O)c3ccc(N4CCN([C@@H]5CCCCc6c(Cl)cccc65)CC4)cc3Oc3cnc4[nH]ccc4c3)cc1[N+](=O)[O-])C2` , result: < 20 nM

// IC50 lookup, molecule = `O=C(NS(=O)(=O)c1ccc(NCC2CC3(CCNCC3)C2)c([N+](=O)[O-])c1)c1ccc(N2CCN([C@@H]3CCCCc4c(Cl)cccc43)CC2)cc1Oc1cnc2[nH]ccc2c1` , result: < 20 nM

// IC50 lookup, molecule = O=C(NS(=O)(=O)c1ccc(NCC2CCOCC2)c([N+](=O)[O-])c1)c1ccc(N2CC3(CCN(C4CCCc5ccccc54)C3)C2)cc1Oc1cnc2[nH]ccc2c1 (stereo not drawn) , result: < 20 nM

// IC50 lookup, molecule = `O=C(NS(=O)(=O)c1ccc(NCC2CCC3(CC2)COC3)c([N+](=O)[O-])c1)c1ccc(N2CCN([C@@H]3CCCCc4c(Cl)cccc43)CC2)cc1Oc1cnc2[nH]ccc2c1` , result: < 20 nM

// IC50 lookup, molecule = `CC(C)S(=O)(=O)N1CCC2(CC1)CC(CNc1ccc(S(=O)(=O)NC(=O)c3ccc(N4CCN([C@@H]5CCCCc6c(Cl)cccc65)CC4)cc3Oc3cnc4[nH]ccc4c3)cc1[N+](=O)[O-])C2` , result: < 20 nM

// IC50 lookup, molecule = O=C(NS(=O)(=O)c1ccc(NCC2CCOCC2)c([N+](=O)[O-])c1)c1ccc(N2CCN(C3CCOc4ccccc43)CC2)cc1Oc1cnc2[nH]ccc2c1 (stereo not drawn) , result: 20 to 200 nM

// IC50 lookup, molecule = `O=C(NS(=O)(=O)c1ccc(NCC2CCOCC2)c([N+](=O)[O-])c1)c1ccc(N2CCN([C@@H]3CCCCc4c(O)cccc43)CC2)cc1Oc1cnc2[nH]ccc2c1` , result: 20 to 200 nM

// IC50 lookup, molecule = O=C(NS(=O)(=O)c1ccc(NCC2CCOCC2)c([N+](=O)[O-])c1)c1ccc(N2CC3(CCN(C4CCCCc5ccccc54)C3)C2)cc1Oc1cnc2[nH]ccc2c1 (stereo not drawn) , result: 20 to 200 nM

// IC50 lookup, molecule = `O=C(NS(=O)(=O)c1ccc(NCC2CC3(CCNCC3)C2)c([N+](=O)[O-])c1)c1ccc(N2CCN([C@@H]3CCCCc4c(Cl)cccc43)CC2)cc1` , result: 20 to 200 nM

// IC50 lookup, molecule = CC(=O)Nc1cccc2c1CCCCC2N1CCN(c2ccc(C(=O)NS(=O)(=O)c3ccc(NCC4CCOCC4)c([N+](=O)[O-])c3)c(Oc3cnc4[nH]ccc4c3)c2)CC1 (stereo not drawn) , result: < 20 nM

// IC50 lookup, molecule = `CN1CCC2(CC1)CC(CNc1ccc(S(=O)(=O)NC(=O)c3ccc(N4CCN([C@@H]5CCCCc6c(Cl)cccc65)CC4)cc3Oc3cnc4[nH]ccc4c3)cc1[N+](=O)[O-])C2` , result: < 20 nM

// IC50 lookup, molecule = O=C(NS(=O)(=O)c1ccc(NCC2CCOCC2)c([N+](=O)[O-])c1)c1ccc(N2CCN(C3CCCCc4cc(Cl)ccc43)CC2)cc1Oc1cnc2[nH]ccc2c1 (stereo not drawn) , result: 20 to 200 nM

// IC50 lookup, molecule = O=C(NS(=O)(=O)c1ccc(NCC2CCOCC2)c([N+](=O)[O-])c1)c1ccc(N2CCN(C3COCc4ccccc43)CC2)cc1Oc1cnc2[nH]ccc2c1 (stereo not drawn) , result: 20 to 200 nM
